This collection of values is drawn from patent US4895842A.

For each of the compounds below, state its pIC50.
target: human urokinase (Homo sapiens, UniProt P00749); assay: biochemical; settings: Table 2; S-2444 substrate, pH 8.8, 37° C.; read-out: Urokinase S-2444 (I50)
pIC50: −log10 of the molar value.

# input Report pIC50 for NCc1ccc(C(=O)N[C@@H](Cc2ccc(OCc3ccccc3)cc2)C(=O)NCCc2ccccc2)cc1 [compound 78] please.
# output < 3.70

# input // query pIC50 value for entry NCC1CCC(C(=O)NC(Cc2ccc(OCc3ccccc3)cc2)C(=O)NCc2ccc(F)cc2)CC1 (stereo not drawn) [compound 111]
# output < 3.52

# input Recorded pIC50 of NCc1ccc(C(=O)N[C@@H](Cc2ccc(OCc3ccccc3)cc2)C(=O)N2CCC(C(=O)c3ccccc3)CC2)cc1 [compound 76] , please.
# output < 3.60

----------
molecular target: bovine trypsin (Bos taurus); assay: Antitrypsin activity: inhibition of S-2238 decomposition; format: biochemical; settings: Table 2; S-2238 substrate, pH 8.1, 37° C.; read-out: Trypsin S-2238 (I50)
ASSAY READOUT: IC50 (nM)
The answer is to be given in nM; state only the numeric part.

# input What measured IC50 goes with CCOC(=O)c1ccc(COc2ccc(C[C@H](NC(=O)[C@H]3CC[C@H](CN)CC3)C(=O)Nc3ccc(C(C)=O)cc3)cc2)cc1 [compound 86] ?
# output 970

# input # IC50 lookup, item CC(=O)c1ccc(NC(=O)C(Cc2ccc(OCc3ccccc3)cc2)NC(=O)c2ccc(CN)cc2)cc1 (centres unmarked) [compound 118]
# output 3000

# input Suppose we examine the compound CC1CCC(NC(=O)C(Cc2ccc(Oc3ccc([N+](=O)[O-])cc3)cc2)NC(=O)c2ccc(CN)cc2)CC1C (centres unmarked) [compound 109] ; what IC50 value has been reported?
# output 430

# input Look up IC50 for this compound: NC[C@H]1CC[C@H](C(=O)N[C@@H](Cc2ccc(OCc3ccccc3)cc2)C(=O)Nc2ccncc2)CC1 [compound 40]
# output 1800

# input Please give the measured IC50 for this compound: CC(=O)c1ccc(NC(=O)[C@H](Cc2ccc(OCc3ccccc3)cc2)NC(=O)[C@H]2CC[C@H](CN)CC2)cc1 [Compound No. 3]
# output 770

# input Recorded IC50 of CSc1ccc(NC(=O)[C@H](Cc2ccc(OCc3ccccc3)cc2)NC(=O)[C@H]2CC[C@H](CN)CC2)cc1 [compound 29] , please.
# output 3100

# input Query: IC50; subject: NC[C@H]1CC[C@H](C(=O)N[C@@H](Cc2ccc(OCc3ccccc3)cc2)C(=O)Nc2cccc([N+](=O)[O-])c2)CC1 [compound 44]
# output 1100

# input Could you tell me which IC50 is on file for CC(=O)c1ccc(NC(=O)[C@H](Cc2ccccc2)NC(=O)[C@H]2CC[C@H](CN)CC2)cc1 [Compound No. 2] ?
# output 1300

----------
Can you tell me IC50 for the items I'm about to list?
Biological target: bovine trypsin (Bos taurus)
Sequence (P00760 24-246): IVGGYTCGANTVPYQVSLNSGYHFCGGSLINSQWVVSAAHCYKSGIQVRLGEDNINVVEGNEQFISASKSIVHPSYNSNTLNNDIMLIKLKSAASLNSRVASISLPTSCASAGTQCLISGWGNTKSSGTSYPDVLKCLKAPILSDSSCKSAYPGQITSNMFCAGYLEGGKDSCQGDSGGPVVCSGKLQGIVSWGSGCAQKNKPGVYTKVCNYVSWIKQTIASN
Assay: Antitrypsin activity: inhibition of S-2238 decomposition
Assay type: biochemical
Conditions: Table 2; S-2238 substrate, pH 8.1, 37° C.; read-out: Trypsin S-2238 (I50)
Report only the number, with the unit nM understood.

# input Recorded IC50 for NCc1ccc(C(=O)N[C@@H](Cc2ccc(OCc3ccccc3)cc2)C(=O)NCCc2ccccc2)cc1 , please?
# output 9200

# input Fill in: IC50 of CC1CCC(NC(=O)C(Cc2ccc(OCc3cccc(Cl)c3)cc2)NC(=O)c2ccc(CN)cc2)CC1C (stereo not shown) is ___
# output 1200

# input Give its IC50 value. Item: CC(=O)c1ccc(NC(=O)[C@H](Cc2ccc(OCc3cccc([N+](=O)[O-])c3)cc2)NC(=O)[C@H]2CC[C@H](CN)CC2)cc1
# output 1000

# input Sample NC[C@H]1CC[C@H](C(=O)N[C@@H](Cc2ccc(OCc3cccc(Cl)c3)cc2)C(=O)Nc2ccc(C(=O)c3ccccc3)cc2)CC1 — what was its IC50?
# output 440
